System: Echinochloa crus-galli
ASSAY INFO: Test Example 11: herbicidal effect test by soil treatment in paddy field
Format: in vivo
SETUP CONDITIONS: 120 g/10a active ingredient, 14 days after treatment
Below is a list of entries, each paired with its recorded Weed suppression rate (%) Echinochloa crus-galli value.
PROPERTY NAME: Weed suppression rate (%) Echinochloa crus-galli

> print(dat)
                                    compound  value.measured
 1  CC(C)N(C(=O)n1cnn(S(=O)(=O)C(C)C)c1=O)c1c(F)cc(F)cc1F [Compound 11-63]             100
 2  CC(C)N(C(=O)n1cnn(S(=O)(=O)C2CCCCC2)c1=O)c1ccccc1 [Compound 11-283]             100
 3  CC(C)N(C(=O)n1cnn(S(=O)(=O)c2c(F)c(F)c(F)c(F)c2F)c1=O)c1ccc(F)c(F)c1F [Compound 11-814]              70
 4  CC(C)N(C(=O)n1cnn(S(=O)(=O)C2CCCCC2)c1=O)c1ccc(C#N)cc1Cl [Compound 11-316]              90
 5  Cc1ccc(N(C(=O)n2cnn(S(=O)(=O)c3cccc(C(F)(F)F)c3)c2=O)C(C)C)c(F)c1 [Compound 11-737]              90
 6  CC(C)N(C(=O)n1cnn(S(=O)(=O)N(C)C)c1=O)c1ccc(F)cc1 [Compound 11-1056]              90
 7  CC(C)N(C(=O)n1cnn(S(=O)(=O)c2cccc(C(F)(F)F)c2)c1=O)c1c(F)cc(F)cc1F [Compound 11-727]              90
 8  CCS(=O)(=O)n1ncn(C(=O)N(c2cccc(F)c2F)C(C)C)c1=O [Compound 11-1148]             100
 9  CC(C)N(C(=O)n1cnn(S(=O)(=O)c2ccc(Cl)cc2)c1=O)c1c(F)cc(F)cc1F [Compound 11-592]             100
10  CC(C)N(C(=O)n1cnn(S(=O)(=O)C2CCCCC2)c1=O)c1cccc(F)c1F [Compound 11-293]             100
11  CC(C)N(C(=O)n1cnn(S(=O)(=O)C(C)C)c1=O)c1c(F)c(F)cc(F)c1F [Compound 11-64]             100
12  CCN(CC)C(=O)n1cnn(S(=O)(=O)c2cccc(Cl)c2)c1=O [Compound 11-538]              50
13  CC(C)N(C(=O)n1cnn(S(=O)(=O)C(C)C)c1=O)c1c(F)cccc1F [Compound 11-61]             100
14  Cc1ccc(N(C(=O)n2cnn(S(=O)(=O)c3cccs3)c2=O)C(C)C)c(F)c1 [Compound 11-1036]              90
15  CC(C)N(C(=O)n1cnn(S(=O)(=O)C2CCCCC2)c1=O)c1cccc(F)c1 [Compound 11-285]              90
16  CC(C)N(C(=O)n1cnn(S(=O)(=O)c2ccc(F)cc2)c1=O)c1ccc(F)cc1F [Compound 11-475]             100
17  Cc1ccc(S(=O)(=O)n2ncn(C(=O)N(c3ccc(F)cc3Cl)C(C)C)c2=O)cc1 [Compound 11-644]              90
18  CC(C)N(C(=O)n1cnn(S(=O)(=O)C2CC2)c1=O)c1ccc(Cl)nc1Cl [Compound 11-238]              90
19  CC(C)N(C(=O)n1cnn(S(=O)(=O)c2cccs2)c1=O)c1ccc(C(F)(F)F)cc1Cl [Compound 11-1042]              90
20  Cc1ccc(N(C(=O)n2cnn(S(=O)(=O)C3CCCCC3)c2=O)C(C)C)c(F)c1 [Compound 11-308]              90
21  CN(C(=O)n1cnn(S(=O)(=O)c2cccs2)c1=O)c1ccc(F)cc1F [Compound 11-1147]             100
22  Cc1cc(Cl)ccc1N(C(=O)n1cnn(S(=O)(=O)c2ccc(F)cc2)c1=O)C(C)C [Compound 11-490]              90
23  CC(C)N(C(=O)n1cnn(S(=O)(=O)c2ccccc2F)c1=O)c1ccc(C(F)(F)F)cc1F [Compound 11-419]             100
24  CC(C)N(C(=O)n1cnn(S(=O)(=O)c2cccc(F)c2)c1=O)c1ccc(F)cc1Cl [Compound 11-445]             100
25  CC(C)N(C(=O)n1cnn(S(=O)(=O)N(C)C)c1=O)c1ccc(F)cc1Cl [Compound 11-1071]              90
26  CC(C)N(C(=O)n1cnn(S(=O)(=O)N(C)C)c1=O)c1ccc(F)cc1F [Compound 11-1064]             100
27  CC(C)N(C(=O)n1cnn(S(=O)(=O)C(C)C)c1=O)c1ccc(Cl)cc1Br [Compound 11-71]             100
28  O=C(N(CC(F)(F)F)c1ccc(F)cc1F)n1cnn(S(=O)(=O)C2CCCCC2)c1=O [Compound 11-1156]              70
29  O=C(N(CC(F)(F)F)c1ccc(F)cc1F)n1cnn(S(=O)(=O)C2CC2)c1=O [Compound 11-144]             100
30  Cc1cc(C)c(S(=O)(=O)n2ncn(C(=O)N(c3c(F)cccc3F)C(C)C)c2=O)c(C)c1 [Compound 11-865]              80
31  CC(C)N(C(=O)n1cnn(S(=O)(=O)c2cccc(F)c2)c1=O)c1cccc(F)c1F [Compound 11-437]             100
